- System: MDA-MB-435
- Method: NCI tumour cell line growth inhibition, 48 h
Quantity measured: TGI (µM)

CCc1ccc(CCC(=O)Nc2ncc(Cc3cc(Cl)ccc3Cl)s2)o1; 0.486
COC(=O)NNc1c([N+](=O)[O-])cnn(-c2ccccc2)c1=O; 3.03
Cn1c(=O)cc(NNc2ccc(Br)cc2)[nH]c1=O; 25.3
Nc1ncnc2c1c(-c1cccc(OCc3ccccc3)c1)cn2C1CC(CN2CCCC2)C1 (stereo not given); 3.08
COc1ccc(-c2nc(N(C)C)c3ccccc3n2)cc1; 33.8
CCOC(=O)C1=C(N)Oc2c(sc3c(C)cccc23)C1c1ccc(Cl)cc1 (stereo not given); 2.59
